# Tmax values compiled below
METHOD_DESCRIPTION: TD Phase (Groups 1 and 3): plasma and ocular tissue concentrations and pharmacokinetics of Compound 18 and its metabolite Compound 4 after once daily ocular instillation of Compound 18 nanosuspension for 7 days
Type: in vivo, New Zealand white rabbits
CONDITION: male, New Zealand white, rabbit, topical or ocular, 0.8 mg/kg/day; iris/ciliary body, Day 7, from mean concentrations
ASSAY_METRIC: Tmax (h)

INSERT INTO results (smiles, observed_measurement) VALUES
  ('CCCc1nn(C)c2c(=O)[nH]c(-c3cc(S(=O)(=O)N4CC(CCCO)C4)ccc3OCC)nc12', 1),
  ('CCCc1nn(C)c2c(=O)[nH]c(-c3cc(S(=O)(=O)N4CC(CCCO[N+](=O)[O-])C4)ccc3OCC)nc12', 1);
